Target: T1, human IL-12 (human, UniProt P29460 23-328; P29459 23-219)
T1 construct: Recombinant (Peprotech); FLAG-tagged IL-12 in the flow cytometry assays, biotinylated in the IL-12Rβ2 assay; also called hIL-12
T1 sequence 1: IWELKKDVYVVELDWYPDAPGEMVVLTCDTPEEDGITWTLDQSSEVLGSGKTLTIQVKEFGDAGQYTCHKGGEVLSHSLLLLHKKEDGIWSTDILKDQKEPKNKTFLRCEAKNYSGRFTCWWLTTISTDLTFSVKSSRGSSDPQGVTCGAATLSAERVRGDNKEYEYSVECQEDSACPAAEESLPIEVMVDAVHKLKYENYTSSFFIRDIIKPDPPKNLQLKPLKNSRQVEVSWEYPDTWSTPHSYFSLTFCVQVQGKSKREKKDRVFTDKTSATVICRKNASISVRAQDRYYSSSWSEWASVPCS
T1 sequence 2: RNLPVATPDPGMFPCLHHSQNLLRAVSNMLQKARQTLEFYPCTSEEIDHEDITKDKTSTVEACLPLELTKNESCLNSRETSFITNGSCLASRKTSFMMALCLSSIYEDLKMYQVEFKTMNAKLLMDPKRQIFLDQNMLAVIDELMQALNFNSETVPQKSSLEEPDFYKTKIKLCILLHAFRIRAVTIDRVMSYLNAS
Assay: SPR, IgG on Protein A
kon values for the binders below.
Respond numerically; units are M⁻¹ s⁻¹ and should not be typed.

Antibody 190 (antibody, human IgG1, kappa, V domains shown) VH: QVQLVQSGAEVKKPGASVKVSCKASGYTFTDYYLHWVRQAPGQGLEWMGWIDPENGDTEYAPKFQGRVTMTTDTSTSTAYMELRSLRSDDTAVYYCNANKELRYFDVWGQGTMVTVSS VL: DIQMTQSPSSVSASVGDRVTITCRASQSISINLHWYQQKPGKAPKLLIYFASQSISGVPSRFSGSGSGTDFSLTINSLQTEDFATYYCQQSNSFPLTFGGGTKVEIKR = 3.86e+06

Prompt: I'd like to know its kon. The binder in question is Antibody 136 (antibody, human IgG1, kappa, V domains shown, Humanized PMA204 (1RZ7 framework)) VH: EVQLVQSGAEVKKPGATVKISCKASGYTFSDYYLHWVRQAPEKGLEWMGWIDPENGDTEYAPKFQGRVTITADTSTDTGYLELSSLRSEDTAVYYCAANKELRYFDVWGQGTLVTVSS VL: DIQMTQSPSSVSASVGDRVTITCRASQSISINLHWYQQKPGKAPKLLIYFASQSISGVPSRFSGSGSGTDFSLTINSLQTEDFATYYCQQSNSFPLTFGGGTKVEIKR
Response: 5.05e+06

Prompt: I'd like to know its kon. The binder in question is Antibody 205 (antibody, human IgG1, kappa, V domains shown) VH: QVQLVQSGAEVKKPGASVKVSCKASGYTFTDYYLHWVRQAPGRGLEWMGWIDPENGDTEYAPKFQGRVTMTTDTSTSTAYMELRSLRSDDTAVYYCAANKELRYFDVWGQGTMVTVSS VL: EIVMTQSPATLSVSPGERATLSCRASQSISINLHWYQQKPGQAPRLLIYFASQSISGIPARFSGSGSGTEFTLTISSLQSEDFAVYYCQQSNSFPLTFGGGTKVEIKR
Response: 3.7e+06
